# System: S. cerevisiae tim10 strain, luminescence counterscreen
# TEST PROTOCOL: TIM10 strain luminescence inhibitors – S. cerevisiae, uHTS hits, counter-screen for tim23-1 inhibitor project, dose response (AID 504672);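 also: yeast grew roughly 22 hours at 25 °C before the luminescence read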
Provide the recorded pIC50 for the entries that follow.
Recall that pIC50 is obtained by taking minus log10 of the concentration measured in molar.

In: // query pIC50 value for entry Cn1c(C(=O)Nc2ccc3c(c2)OCCO3)cc2sccc21
Out: 5.12

In: Tell me the measured pIC50 of CCOC(=O)c1ccc(NC(=O)CSc2nc(=O)n3cccc(C)c3n2)cc1 , please.
Out: 4.27

In: Recorded pIC50 of O=C(Nc1nc(-c2cccs2)c(-c2ccccc2)s1)c1ccco1 , please.
Out: 4.54

In: Using the record for CCOC(=O)NNc1ccc2nonc2c1[N+](=O)[O-] , report its pIC50.
Out: 4.99

In: Form field: reported pIC50 of O=C(N/N=C/c1coc2ccc(Cl)cc2c1=O)c1ccncc1
Out: 4.06

In: Which pIC50 is listed for COc1ccc(NC(=O)Nc2nc3c(s2)CCCC3)cc1 ?
Out: 4.84

In: What value of pIC50 has been recorded for this entry: Cc1cccc(C(=O)Oc2cccc3c(O)cccc23)c1
Out: 5.09

In: Form field: reported pIC50 of O=C(N/N=C/c1ccc([N+](=O)[O-])s1)c1ccncc1
Out: 4.90

In: Consider the compound Cc1oc2cc(O)cc(O)c2c(=O)c1-c1ccc2c(c1)OCCCO2 and give its measured pIC50.
Out: 4.97

In: What value of measured pIC50 is listed for Cc1nc2ccc(C(C(F)(F)F)(C(F)(F)F)C(F)(F)F)cc2[nH]1 ?
Out: 4.70

In: Value lookup for pIC50; key = CC1(C)CC(n2c(NCCO)nc3c(c2=O)C2(CCCC2)Cc2ccccc2-3)CCO1 (stereo unspecified)
Out: 4.91

In: Data request, read-out pIC50, for Nc1ccc2nc(SCc3ccccc3F)sc2c1
Out: 4.69

In: Entry under review: Nc1cc([N+](=O)[O-])cc2oc(-c3ccccc3)cc12 . Reported pIC50?
Out: 4.62

In: Need pIC50 of COc1ccc(N2CCC(CNC(=S)Nc3ccc(C)cc3C)C2)cc1 (stereo unspecified) , thanks.
Out: 4.74

In: // pIC50 lookup, key: O=C1Nc2ccccc2/C1=C/c1ccccc1Cl
Out: 5.09

In: // query pIC50 value for entry O=C(N/N=C/c1cc(Br)cc(Br)c1O)c1cccc(N2CCCC2=O)c1
Out: 5.39

Hey, just so you know, these numbers are from PubChem BioAssay AID504672.
